- system tested: WT rIP3R1 (Rattus norvegicus, UniProt C7E1V2, N602D)
- Construct: homotetramer, ~300 kDa subunit; Methods give NM_001270596, footnote NM_001007235
- Sequence (C7E1V2 1-2748 N602D): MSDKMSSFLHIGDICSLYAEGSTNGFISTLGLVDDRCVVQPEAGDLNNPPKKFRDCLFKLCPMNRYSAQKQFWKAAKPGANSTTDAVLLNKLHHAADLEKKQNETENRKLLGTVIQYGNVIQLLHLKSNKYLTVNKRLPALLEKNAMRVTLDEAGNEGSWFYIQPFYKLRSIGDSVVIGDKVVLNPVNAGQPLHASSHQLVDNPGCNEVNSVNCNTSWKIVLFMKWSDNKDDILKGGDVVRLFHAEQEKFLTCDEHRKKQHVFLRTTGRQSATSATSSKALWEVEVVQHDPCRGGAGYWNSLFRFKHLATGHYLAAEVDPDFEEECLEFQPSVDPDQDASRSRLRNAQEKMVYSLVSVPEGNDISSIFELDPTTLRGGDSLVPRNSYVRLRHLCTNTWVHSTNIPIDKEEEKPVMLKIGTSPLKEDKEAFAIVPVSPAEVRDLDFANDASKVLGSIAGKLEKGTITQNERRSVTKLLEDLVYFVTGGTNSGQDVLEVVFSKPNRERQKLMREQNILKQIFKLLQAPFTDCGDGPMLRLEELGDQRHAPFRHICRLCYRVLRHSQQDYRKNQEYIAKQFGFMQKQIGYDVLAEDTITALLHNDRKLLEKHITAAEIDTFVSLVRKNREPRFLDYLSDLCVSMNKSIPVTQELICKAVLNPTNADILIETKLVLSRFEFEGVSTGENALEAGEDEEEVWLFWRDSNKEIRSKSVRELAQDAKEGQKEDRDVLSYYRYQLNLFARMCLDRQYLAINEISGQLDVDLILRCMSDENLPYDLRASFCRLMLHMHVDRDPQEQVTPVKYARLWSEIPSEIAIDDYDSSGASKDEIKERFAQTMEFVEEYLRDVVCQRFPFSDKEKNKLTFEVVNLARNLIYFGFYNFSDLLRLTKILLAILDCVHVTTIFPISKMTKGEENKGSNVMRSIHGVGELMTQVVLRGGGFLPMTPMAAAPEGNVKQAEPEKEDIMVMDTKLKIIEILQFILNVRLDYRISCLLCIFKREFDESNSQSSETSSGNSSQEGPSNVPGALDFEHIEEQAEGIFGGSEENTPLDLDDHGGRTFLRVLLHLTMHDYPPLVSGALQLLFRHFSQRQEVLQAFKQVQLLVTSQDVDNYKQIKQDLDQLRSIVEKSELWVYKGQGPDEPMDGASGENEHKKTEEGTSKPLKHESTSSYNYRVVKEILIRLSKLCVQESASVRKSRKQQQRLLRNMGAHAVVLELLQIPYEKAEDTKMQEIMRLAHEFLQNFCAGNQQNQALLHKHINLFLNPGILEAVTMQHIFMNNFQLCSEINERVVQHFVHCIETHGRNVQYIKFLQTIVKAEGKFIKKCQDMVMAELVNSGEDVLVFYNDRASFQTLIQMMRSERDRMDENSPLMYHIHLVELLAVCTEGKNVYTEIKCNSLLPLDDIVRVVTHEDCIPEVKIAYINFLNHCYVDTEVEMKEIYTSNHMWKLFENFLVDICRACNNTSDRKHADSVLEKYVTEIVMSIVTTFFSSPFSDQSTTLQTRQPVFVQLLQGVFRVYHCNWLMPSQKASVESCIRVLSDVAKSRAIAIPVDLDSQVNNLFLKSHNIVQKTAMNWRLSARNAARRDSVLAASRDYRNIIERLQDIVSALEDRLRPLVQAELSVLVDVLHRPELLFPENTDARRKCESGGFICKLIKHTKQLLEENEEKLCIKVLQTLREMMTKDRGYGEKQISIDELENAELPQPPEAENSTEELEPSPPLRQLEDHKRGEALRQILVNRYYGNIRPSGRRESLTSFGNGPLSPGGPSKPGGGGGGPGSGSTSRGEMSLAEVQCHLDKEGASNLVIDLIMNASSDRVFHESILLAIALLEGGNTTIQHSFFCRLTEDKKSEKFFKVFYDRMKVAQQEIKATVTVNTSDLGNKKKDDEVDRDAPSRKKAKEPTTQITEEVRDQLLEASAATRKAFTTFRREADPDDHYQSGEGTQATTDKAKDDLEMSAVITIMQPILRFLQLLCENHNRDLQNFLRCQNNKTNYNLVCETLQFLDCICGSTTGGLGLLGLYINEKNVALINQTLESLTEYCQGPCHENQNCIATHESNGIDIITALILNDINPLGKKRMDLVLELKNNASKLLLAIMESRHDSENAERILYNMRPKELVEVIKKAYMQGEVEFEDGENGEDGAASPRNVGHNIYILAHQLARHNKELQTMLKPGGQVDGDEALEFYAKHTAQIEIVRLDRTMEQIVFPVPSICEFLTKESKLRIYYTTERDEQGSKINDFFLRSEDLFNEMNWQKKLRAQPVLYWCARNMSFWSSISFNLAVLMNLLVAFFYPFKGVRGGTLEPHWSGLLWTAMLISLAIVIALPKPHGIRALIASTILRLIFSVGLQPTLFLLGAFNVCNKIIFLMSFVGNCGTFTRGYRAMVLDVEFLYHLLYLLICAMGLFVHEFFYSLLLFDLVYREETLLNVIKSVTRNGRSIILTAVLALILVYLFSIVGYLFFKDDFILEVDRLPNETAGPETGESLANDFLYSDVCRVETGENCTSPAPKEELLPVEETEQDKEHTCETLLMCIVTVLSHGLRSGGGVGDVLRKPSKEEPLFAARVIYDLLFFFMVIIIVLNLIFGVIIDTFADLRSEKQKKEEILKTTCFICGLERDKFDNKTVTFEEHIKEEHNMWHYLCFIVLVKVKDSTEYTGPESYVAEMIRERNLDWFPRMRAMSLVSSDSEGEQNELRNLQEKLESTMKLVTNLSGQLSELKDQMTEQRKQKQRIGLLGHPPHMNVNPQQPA
- assay name: competitive [3H]IP3 radioligand binding on immunoprecipitated receptor
assay endpoint: pEC50
FYI, pEC50 means -log10 of a concentration in mol per litre.

Prompt line: What value of measured pEC50 is listed for O=P(O)(O)O[C@@H]1[C@H](O)[C@H](O)[C@@H](OP(=O)(O)O)[C@H](OP(=O)(O)O)[C@H]1O ?
Response line: 7.15
